Listed here are compounds together with their documented AC50.
target: UniProt P43351; format: functional, biochemical
Sequence (P43351 whole entry): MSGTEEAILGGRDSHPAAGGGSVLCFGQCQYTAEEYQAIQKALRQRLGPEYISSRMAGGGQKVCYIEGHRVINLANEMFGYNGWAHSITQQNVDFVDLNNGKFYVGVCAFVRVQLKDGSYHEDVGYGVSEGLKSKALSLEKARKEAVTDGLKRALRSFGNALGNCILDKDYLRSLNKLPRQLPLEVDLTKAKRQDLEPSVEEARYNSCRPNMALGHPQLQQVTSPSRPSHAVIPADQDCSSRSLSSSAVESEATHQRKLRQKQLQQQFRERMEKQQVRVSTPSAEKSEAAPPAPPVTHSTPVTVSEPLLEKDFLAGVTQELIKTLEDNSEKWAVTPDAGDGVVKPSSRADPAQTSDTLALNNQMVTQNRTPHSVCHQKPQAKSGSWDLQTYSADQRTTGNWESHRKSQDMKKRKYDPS
Where a name gives a salt, the structure may show the parent alone. Activity calls are given as the source filed them.

# Compound, Assayed system, AC50
records = [
    ("CN1CCN(C2CCN(Cc3ccc(O)c4ncccc34)CC2)CC1", "UniProt P43351", "1.11 µM (active)"),
    ("CCN(CC)CCCN(C(=O)c1ccco1)c1nc(-c2ccc(C)cc2)cs1", "UniProt P43351", "20.7 µM (active)"),
    ("CCC(=O)c1ccc2c(c1)N(CCCN(C)C)c1ccccc1S2 [PROPIONYLPROMAZINE HYDROCHLORIDE]", "UniProt P43351", "31.4 µM (active)"),
    ("CCN(CC)CCCNC(=O)c1cc2c(O)nc3ccc(C)cc3c2s1", "UniProt P43351", "21.5 µM (active)"),
]

---

Target: Rac GTPase-activating protein 1 (Homo sapiens, UniProt Q9H0H5)
Sequence (Q9H0H5 whole entry): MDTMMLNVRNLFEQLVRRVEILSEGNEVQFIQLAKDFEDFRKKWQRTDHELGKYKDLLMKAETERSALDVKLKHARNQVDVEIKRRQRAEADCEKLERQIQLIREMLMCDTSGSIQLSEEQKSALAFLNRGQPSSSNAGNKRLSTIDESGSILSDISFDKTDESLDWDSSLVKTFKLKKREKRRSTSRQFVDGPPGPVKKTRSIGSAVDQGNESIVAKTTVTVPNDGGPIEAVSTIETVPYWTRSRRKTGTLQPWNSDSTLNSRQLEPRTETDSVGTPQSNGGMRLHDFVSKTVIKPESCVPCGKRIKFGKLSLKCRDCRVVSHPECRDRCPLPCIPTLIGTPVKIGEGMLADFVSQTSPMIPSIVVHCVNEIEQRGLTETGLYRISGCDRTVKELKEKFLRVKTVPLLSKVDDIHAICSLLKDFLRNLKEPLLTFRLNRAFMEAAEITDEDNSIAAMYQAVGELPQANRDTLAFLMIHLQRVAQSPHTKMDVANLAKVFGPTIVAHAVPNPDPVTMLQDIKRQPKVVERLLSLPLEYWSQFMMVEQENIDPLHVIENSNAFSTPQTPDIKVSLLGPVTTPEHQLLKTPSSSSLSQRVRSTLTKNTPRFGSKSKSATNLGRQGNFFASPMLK
Assay: MgcRacGAP GTPase-activating activity inhibitors, confirmation, biochemical, ADP Hunter fluorescence, primary and confirmatory (AID 624330)
Assay type: functional
Active and inactive are the calls of the source.
Measure name: IC50

# Molecule, Result
measured = [
    ("CN(CCCCCCN(C)Cc1ccccc1O)Cc1ccccc1O", "73.6 µM (active)"),
    ("CCC/C(=N\\c1ccc(N)cc1)C1=C(O)C(C(=O)OC)C(C)(C)CC1=O (stereo not given)", "9.5 µM (active)"),
    ("Cc1cccn2c(S)nnc12", "17.2 µM (active)"),
    ("Oc1c(Br)cc(Br)cc1/C=N/c1ccc2c(c1)OCCO2", "119 µM (active)"),
    ("CN(C)CCCN1c2ccc3ccccc3c2Sc2cccc(Cl)c21", "48.9 µM (active)"),
    ("O=C(NCc1ccccc1)/C(=C\\c1ccc(O)cc1)NC(=O)c1ccco1", "141 µM (active)"),
    ("O=c1cc(-c2ccc(O)c(O)c2)oc2cc(O)c([C@@H]3O[C@H](CO)[C@@H](O)[C@H](O)[C@H]3O)c(O)c12", "40.9 µM (active)"),
    ("COc1cc(/C=N/NC(=O)c2[nH]nc3c2CCc2ccccc2-3)ccc1O", "54.3 µM (active)"),
    ("O=C(COC(=O)COc1ccc(Nc2ccccc2)cc1)NCc1ccco1", "77.4 µM (active)"),
    ("CCOc1cc(/C=C2\\CN(CC)C/C(=C\\c3ccc(O)c(OCC)c3)C2=O)ccc1O", "46.6 µM (active)"),
]

---

// values below are reported EC50
biological target: Protein RecA (Mycobacterium tuberculosis); assay: Fluorescence Cell-Free Homogeneous Dose Retest to Identify Inhibitors of RecA-Intein Splicing Activity. [Related pubchem assays (depositor defined):AID2097, AID2223, AID489010, AID492950]; type: functional
Activity calls are given as the source filed them.

# Smiles repr, EC50
measured = [
    ("CNC(=O)/C(C#N)=C/c1c(N(Cc2ccccc2)Cc2ccccc2)nc2c(C)cccn2c1=O", "104 µM (active)"),
    ("O=C1CC/[N+](=C\\c2ccccc2)[N-]1", "4.58 µM (active)"),
    ("Cc1ccccc1CS(=O)(=O)c1snnc1C", "> 380 µM (inactive)"),
    ("CC(=O)N1CCC2(CC1)C(C#N)=C(N)Oc1[nH]nc(C)c12", "1.36 µM (active)"),
    ("O=C1/C(=N\\c2cccc(O)c2)C(N2CCCCC2)=C(O)c2ccccc21", "0.364 µM (active)"),
    ("Cc1ccc(NC2=C(NC(=O)c3ccccc3)C(=O)c3ccccc3C2=O)cc1Cl", "2.52 µM (active)"),
    ("CN1N=C(C(C)(C)C)CC1=O", "2.5 µM (active)"),
    ("CCCCCCN(C(=O)CCl)c1ccccc1", "4.45 µM (inconclusive)"),
]

---

Item-by-item account of EC50
molecular target: RNA-binding protein pos-1 (Caenorhabditis elegans, UniProt G5EF15); experiment: inhibitors of POS-1/mex-3 RNA binding, dose response, biochemical, fluorescence polarization (AID 1964);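 further: purified POS-1 fused to maltose binding protein made in E. coli; potency of compounds blocking POS-1 binding to fluorescent RNA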
Sequence (G5EF15 whole entry, the tested form may be a part): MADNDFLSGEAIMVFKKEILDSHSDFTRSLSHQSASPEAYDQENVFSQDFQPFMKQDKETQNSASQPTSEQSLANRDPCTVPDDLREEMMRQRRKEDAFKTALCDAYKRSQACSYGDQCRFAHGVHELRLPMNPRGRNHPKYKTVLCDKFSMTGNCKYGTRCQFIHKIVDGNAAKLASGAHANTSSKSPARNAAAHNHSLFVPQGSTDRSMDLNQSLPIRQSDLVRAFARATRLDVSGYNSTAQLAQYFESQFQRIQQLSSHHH
Active and inactive are the calls of the source.
Measure name: EC50

# Molecule, Result
rows = [
    ("C=CCn1c(=S)[nH]c2nc3c(cc2c1=O)COC(C)(C)C3", "> 300 µM (not active)"),
    ("N#CC1=C(N)OC2=C(C(=O)CCC2)C1c1cc2c(cc1Br)OCO2 (stereo not given)", "> 300 µM (not active)"),
    ("CCOc1ccc(-c2nn(-c3ccccc3)cc2/C=C2\\SC(=S)N(C3CCS(=O)(=O)C3)C2=O)cc1 (stereo not given)", "> 300 µM (not active)"),
    ("CCn1nc(C)c(/C=C2\\CCCC3=C2OC(N)=C(C#N)C3c2c(C)nn(CC)c2C)c1C (stereo not given)", "36 µM (active)"),
    ("Cc1cc(/C=C(\\C#N)C(=O)Nc2ccccc2)c(C)n1-c1ccc(C(=O)O)cc1", "> 300 µM (not active)"),
    ("Cc1ccccc1NC(=O)/C(C#N)=C/c1ccc(-c2ccc(Cl)c(C(=O)O)c2)o1", "> 300 µM (not active)"),
    ("COc1cc(C2C(C#N)=C(N)OC3=C2C(=O)CCC3)cc(OC)c1OC(=O)N1CCOCC1 (stereo not given)", "> 300 µM (not active)"),
    ("CCOC(=O)c1c2ccc(OCC(=O)N/N=C/c3ccc(C)cc3)cc2n2ccccc12", "> 300 µM (not active)"),
    ("CSc1nncc(/C(C)=N\\Nc2ccccc2)n1", "41.3 µM (active)"),
    ("O=c1ccc2[n+]([O-])c3ccc(O)cc3oc-2c1", "> 300 µM (not active)"),
]

---

test system: INS1; test: beta cell apoptosis inhibitors, cytokine rescue, dose response, luminescence, retest (AID 449756); assay type: functional, cell-based; details: Rattus norvegicus;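 further: cell death triggered by IL-1 beta plus TNF-alpha plus IFN-gamma mixture; protective hits raise ATP signal compared with cytokine alone wells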
Active and inactive are the calls of the source.
Below, each of the compounds is paired with its reported AC50 value.
Measure name: AC50

# Smiles repr, Result
measured = [
    ("CC[C@H](C)[C@@H](C(=O)NCCCCCCCCCCC(=O)N1CCN(C(=O)OC(C)(C)C)CC1)n1cc(CCCCCNC(=O)OC(C)(C)C)nn1", "4.08 µM (active)"),
    ("CCN(C1CCCCC1)S(=O)(=O)c1ccc(S(=O)(=O)NCc2ccncc2)cc1", "5.12 µM (active)"),
    ("CN1/C(=C\\C(=O)C[n+]2ccc(C(=O)c3ccccc3)cc2)C(C)(C)c2ccccc21", "2.42 µM (active)"),
    ("O=C(NCc1cccnc1)/C(=C/c1ccc(-c2cccc(Cl)c2)o1)S(=O)(=O)c1ccccc1", "6.06 µM (active)"),
    ("Cc1ccc(C)c(S(=O)(=O)Nc2cc(SCC(=O)O)c(O)c3ccccc23)c1", "4.28 µM (active)"),
]

---

target: Fatty acid synthase (Homo sapiens, UniProt P49327); assay: FAS thioesterase domain inhibitors, dose response, biochemical, kinetic fluorescence intensity (AID 624326); assay type: functional;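 further: rate of fluorescence rise from hydrolysis of a fluorogenic O-methyl fluorescein ester substrate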
Sequence (P49327 whole entry, the tested form may be a part): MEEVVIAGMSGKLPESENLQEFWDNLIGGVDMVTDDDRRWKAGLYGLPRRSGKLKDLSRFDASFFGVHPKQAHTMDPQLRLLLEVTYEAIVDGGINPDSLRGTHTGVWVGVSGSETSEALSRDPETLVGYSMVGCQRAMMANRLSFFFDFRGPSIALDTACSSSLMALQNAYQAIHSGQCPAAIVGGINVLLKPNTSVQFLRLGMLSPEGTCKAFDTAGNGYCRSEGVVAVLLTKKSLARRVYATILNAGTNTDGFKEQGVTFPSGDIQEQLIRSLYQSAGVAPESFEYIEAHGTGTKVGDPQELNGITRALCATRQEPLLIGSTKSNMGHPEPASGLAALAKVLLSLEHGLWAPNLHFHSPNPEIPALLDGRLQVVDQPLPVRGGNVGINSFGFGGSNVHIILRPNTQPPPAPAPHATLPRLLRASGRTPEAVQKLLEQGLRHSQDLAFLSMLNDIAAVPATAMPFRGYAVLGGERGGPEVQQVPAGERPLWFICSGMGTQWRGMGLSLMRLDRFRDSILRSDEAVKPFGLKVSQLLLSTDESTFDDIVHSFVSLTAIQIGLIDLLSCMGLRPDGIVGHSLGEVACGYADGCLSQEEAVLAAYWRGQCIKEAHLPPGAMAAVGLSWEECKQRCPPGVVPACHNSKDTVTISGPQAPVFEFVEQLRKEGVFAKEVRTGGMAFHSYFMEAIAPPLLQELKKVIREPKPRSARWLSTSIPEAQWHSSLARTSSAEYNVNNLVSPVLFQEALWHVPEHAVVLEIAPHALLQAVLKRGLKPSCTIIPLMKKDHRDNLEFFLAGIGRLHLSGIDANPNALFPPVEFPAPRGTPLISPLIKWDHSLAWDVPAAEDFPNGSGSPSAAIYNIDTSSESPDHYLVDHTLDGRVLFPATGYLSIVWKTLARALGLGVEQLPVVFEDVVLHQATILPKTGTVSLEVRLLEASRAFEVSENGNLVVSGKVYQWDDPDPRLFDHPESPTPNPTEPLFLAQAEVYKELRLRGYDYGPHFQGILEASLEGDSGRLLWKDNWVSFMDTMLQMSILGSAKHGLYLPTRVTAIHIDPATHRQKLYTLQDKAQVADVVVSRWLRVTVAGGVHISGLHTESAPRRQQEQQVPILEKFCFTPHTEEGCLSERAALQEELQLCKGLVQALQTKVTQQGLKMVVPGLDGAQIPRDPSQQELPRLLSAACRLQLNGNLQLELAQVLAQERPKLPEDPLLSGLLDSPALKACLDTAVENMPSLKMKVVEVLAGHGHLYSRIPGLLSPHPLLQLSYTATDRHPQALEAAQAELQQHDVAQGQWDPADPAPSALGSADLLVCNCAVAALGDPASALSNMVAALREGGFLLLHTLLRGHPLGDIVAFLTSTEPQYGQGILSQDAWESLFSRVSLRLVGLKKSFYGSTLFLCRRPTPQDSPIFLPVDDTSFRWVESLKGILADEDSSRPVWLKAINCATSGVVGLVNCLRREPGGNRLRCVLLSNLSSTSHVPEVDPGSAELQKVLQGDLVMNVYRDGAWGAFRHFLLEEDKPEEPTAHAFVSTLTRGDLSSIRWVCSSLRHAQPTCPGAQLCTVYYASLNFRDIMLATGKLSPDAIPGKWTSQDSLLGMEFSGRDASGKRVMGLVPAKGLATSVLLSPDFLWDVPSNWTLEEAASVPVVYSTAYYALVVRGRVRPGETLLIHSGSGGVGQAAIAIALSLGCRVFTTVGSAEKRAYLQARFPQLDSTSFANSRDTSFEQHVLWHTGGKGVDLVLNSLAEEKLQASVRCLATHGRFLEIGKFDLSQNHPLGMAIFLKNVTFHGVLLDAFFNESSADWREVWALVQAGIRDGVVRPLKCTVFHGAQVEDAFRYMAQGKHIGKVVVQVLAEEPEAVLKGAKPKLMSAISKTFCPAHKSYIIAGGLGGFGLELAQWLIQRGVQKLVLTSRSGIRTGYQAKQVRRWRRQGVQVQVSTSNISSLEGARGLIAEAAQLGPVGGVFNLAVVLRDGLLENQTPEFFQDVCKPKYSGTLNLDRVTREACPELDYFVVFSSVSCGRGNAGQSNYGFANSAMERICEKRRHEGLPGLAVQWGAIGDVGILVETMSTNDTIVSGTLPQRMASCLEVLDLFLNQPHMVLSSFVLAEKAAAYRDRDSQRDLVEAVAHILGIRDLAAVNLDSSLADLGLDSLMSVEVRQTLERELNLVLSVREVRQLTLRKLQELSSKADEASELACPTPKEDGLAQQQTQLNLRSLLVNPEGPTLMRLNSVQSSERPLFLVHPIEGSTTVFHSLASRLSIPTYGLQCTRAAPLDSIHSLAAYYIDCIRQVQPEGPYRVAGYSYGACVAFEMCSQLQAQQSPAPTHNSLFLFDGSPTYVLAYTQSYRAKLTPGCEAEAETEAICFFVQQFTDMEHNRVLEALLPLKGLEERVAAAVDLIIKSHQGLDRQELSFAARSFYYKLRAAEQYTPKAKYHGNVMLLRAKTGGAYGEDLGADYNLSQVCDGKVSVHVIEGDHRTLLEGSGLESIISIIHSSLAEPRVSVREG
Active and inactive are the calls of the source.
The molecules listed here are annotated with their IC50.
Measure name: IC50

# Smiles repr, Result
records = [
    ("O[C@H]1C[C@H](c2ccc(Cl)cc2)N(CC2CCCCC2)C[C@@H]1n1cc(C2CC2)nn1", "13.1 µM (active)"),
    ("O=Cc1cn(Cc2cccc([N+](=O)[O-])c2)c2ccccc12", "10.9 µM (active)"),
    ("O=C(N/N=C/c1cc([N+](=O)[O-])cc([N+](=O)[O-])c1O)C(O)(c1ccccc1)c1ccccc1", "8.77 µM (active)"),
    ("O=C(/C=C/c1cccc([N+](=O)[O-])c1)NCc1ccc2c(c1)OCO2", "2.72 µM (active)"),
    ("CC(C)COc1ccc(C(=O)N/C(=C/c2cccc([N+](=O)[O-])c2)C(=O)O)cc1", "9.3 µM (active)"),
    ("CC(=O)NC(=S)Nc1sc2c(c1C#N)CCCCC2", "13.6 µM (active)"),
    ("O=c1oc(-c2ccccc2F)nc2scc(-c3ccccc3)c12", "0.638 µM (active)"),
]
